target: Cytochrome P450 3A4 (Homo sapiens)
Sequence (P08684 whole entry): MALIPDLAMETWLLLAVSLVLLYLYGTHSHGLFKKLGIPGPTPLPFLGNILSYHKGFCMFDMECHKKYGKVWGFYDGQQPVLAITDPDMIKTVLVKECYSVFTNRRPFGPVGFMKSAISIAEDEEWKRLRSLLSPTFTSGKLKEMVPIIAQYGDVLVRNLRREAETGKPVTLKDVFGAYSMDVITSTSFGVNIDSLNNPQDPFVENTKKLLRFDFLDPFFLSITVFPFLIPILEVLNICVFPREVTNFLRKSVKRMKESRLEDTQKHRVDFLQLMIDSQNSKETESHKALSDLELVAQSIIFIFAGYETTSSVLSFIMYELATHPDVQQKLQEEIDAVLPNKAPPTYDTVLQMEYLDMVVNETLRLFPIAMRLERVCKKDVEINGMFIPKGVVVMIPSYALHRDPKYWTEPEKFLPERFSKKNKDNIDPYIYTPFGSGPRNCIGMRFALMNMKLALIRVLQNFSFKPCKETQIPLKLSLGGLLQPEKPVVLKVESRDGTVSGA
pIC50: −log10 of the molar value.
quantity_measured: pIC50

molecule: C/C(=C\COc1c(CCC(=O)O)c(O)cc2occc12)CCC(O)C(C)(C)O (configuration not stated)
quantity_measured: pIC50
value_comparator: <
recorded_number: 3.76
--
molecule: C/C(=C\COc1c2ccoc2cc2oc(=O)ccc12)CC[C@@H](O)C(C)(C)O
quantity_measured: pIC50
value_comparator: =
recorded_number: 6.09

----------
assay: Drug metabolism in submerged cultures of Penicillium ulaiense assessed as decrease in compound concentration at 23.7 uM after 2 days; assay type: ADME; settings: read-out: Drug metabolism
quantity_measured: metabolised at 48 h, 23.7 µM

compound: C/C(=C\COc1c2ccoc2cc2oc(=O)ccc12)CCC1OC1(C)C (stereo unspecified)
quantity_measured: metabolised at 48 h, 23.7 µM
result: > 90%
